In this section we review reported Kd values for a set of binders.
Molecular target: T1, human IGFBP7 recombinant protein (UniProt Q16270 27-282, biotinylated with EZ-LINK NHS-PEG4 biotin in the BLI assays (sites not given))
T1 chain: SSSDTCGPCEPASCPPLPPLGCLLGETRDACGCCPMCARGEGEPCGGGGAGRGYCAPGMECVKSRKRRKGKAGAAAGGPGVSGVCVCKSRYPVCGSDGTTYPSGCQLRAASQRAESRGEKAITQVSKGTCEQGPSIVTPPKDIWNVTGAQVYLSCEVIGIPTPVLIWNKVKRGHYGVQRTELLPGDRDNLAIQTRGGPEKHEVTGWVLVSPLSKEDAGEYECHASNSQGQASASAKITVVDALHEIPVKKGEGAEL
Test: BLI
assay-endpoint: Kd (nM)

binder	quantity-unit	meas-value
bispecific anti-IGFBP7 nanobody Fc-fusion construct A1-mIgG2a-D4 (bispecific antibody, V domains shown, also called A1-mIgG2a-D4-2; not shown: mouse IgG2a Fc fragment (mIgG2a Fc)) V domain 1: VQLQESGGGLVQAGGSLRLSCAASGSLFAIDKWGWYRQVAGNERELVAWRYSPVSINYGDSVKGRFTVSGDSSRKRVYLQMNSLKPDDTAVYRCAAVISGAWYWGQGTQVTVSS V domain 2: VQLQESGGGLVQTGGSLRLSCAASGRSFTFSSYAMGWFRHAPGKEREFLTAITWSGDYTYYTDSVKGRSTISRDNAKNTVYLQLNNLKPEDTAVYYCAAKFSQVSAFFATVSEYEYWGQGTQVTVSS	nM	0.193
A1-mIgG2a nanobody Fc-fusion (Fc fusion, VHH fused with mIgG2a Fc fragment, expressed in Expi293 cells, Protein G purified; also called monoclonal A1-mIgG2a; monospecific A1-mIgG2a; not shown: mouse IgG2a Fc fragment (mIgG2a Fc)) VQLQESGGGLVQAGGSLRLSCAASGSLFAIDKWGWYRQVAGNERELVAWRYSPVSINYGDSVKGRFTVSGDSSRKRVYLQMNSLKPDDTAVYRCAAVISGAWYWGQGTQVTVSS	nM	2.72
